Value source: paper PMC5540273

Below: a set of entries, each annotated with reported %Inh.
# Test system: ADCK4;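 also: KINOMEscan kinase panel screen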
# CONDITION_INFO: concentration: 1 μM, replicates: in singlicate; n = 1
Please reply with the bare figure in % and do not write the unit itself.

Previously resolved entries follow.
[
  {
    "COMPOUND": "Cc1ccc(C(=O)N2CC[C@@H](O)C2)cc1-n1c(C)cc(OCc2ccc(F)cc2F)c(Br)c1=O",
    "PROPERTY_LABEL": "%Inh",
    "UNIT_TAG": "%",
    "RECORDED_MEASUREMENT": 66
  },
  {
    "COMPOUND": "Cl.NC(=O)c1cccc(Nc2nccc(Nc3ccc(Oc4c(Cl)cccc4Cl)c(Cl)c3)n2)c1 [GW659009]",
    "PROPERTY_LABEL": "%Inh",
    "UNIT_TAG": "%",
    "RECORDED_MEASUREMENT": 14
  },
  {
    "COMPOUND": "Cc1ccc(F)c(C(=O)Nc2cccc(-c3nn4ccccc4c3-c3ccnc(Nc4cccc(F)c4)n3)c2)c1F [GSK361061]",
    "PROPERTY_LABEL": "%Inh",
    "UNIT_TAG": "%",
    "RECORDED_MEASUREMENT": 37
  }
]

## Input Record request: %Inh value, item CN(c1ccc(NC(=O)Nc2cc(C(F)(F)F)ccc2F)cc1)c1ccnc(Nc2ccc(S(N)(=O)=O)cc2)n1 [GW809893]
## Output 7
